The reported numbers originate from patent US20080220030A1.

# protocol.description: Solubility of triclosan in the initial chitosan-cyclodextrin solutions (Example 7)
# Assay type: physicochemical
# settings: aqueous with cosolvent or surfactant or cyclodextrin, thermodynamic from solid, type HPCD •, 6.29 mM
experimental.endpoint: solubility (µg/mL)
Write the value in µg/mL as a bare number.

Q: Fill blank: measured solubility of the molecule `Oc1cc(Cl)ccc1Oc1ccc(Cl)cc1Cl` is ____.
Ans: 588

---

# protocol.description: Solubility of triclosan in the initial chitosan-cyclodextrin solutions (Example 7)
# Assay type: physicochemical
# settings: aqueous with cosolvent or surfactant or cyclodextrin, thermodynamic from solid, HPCD 0 mM
experimental.endpoint: solubility (µg/mL)
Write the value in µg/mL as a bare number.

Q: Fill blank: measured solubility of the compound `Oc1cc(Cl)ccc1Oc1ccc(Cl)cc1Cl` is ____.
Ans: 68

---

# protocol.description: Solubility of triclosan in the initial chitosan-cyclodextrin solutions (Example 7)
# Assay type: physicochemical
# settings: aqueous with cosolvent or surfactant or cyclodextrin, thermodynamic from solid, type HPCD •, 25 mM (first 25 mM line)
experimental.endpoint: solubility (mg/mL)
Write the value in mg/mL as a bare number.

Q: Fill blank: measured solubility of the compound `Oc1cc(Cl)ccc1Oc1ccc(Cl)cc1Cl` is ____.
Ans: 1.12
